Data origin, for the record: the supplement of paper PMC10567573

Kindly state protein stability index for each of the entries shown.
B1: INTS4 (parent)
chain: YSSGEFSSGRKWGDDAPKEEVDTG

variants of: B1; experiment: protein stability index of a GFP-peptide fusion (GPS, HEK-293T) (PSI 1-6); higher = more stable; settings: c terminus: a fixed tail appended;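 further: lentivirally expressed fusions sorted by FACS into six bins by GFP to DsRed ratio, PSI derived from sequencing read proportions per bin multiplied by bin number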
One number for each entry.

> print(dat)
   variant.identifier  recorded.value
1                P17E             2.8
2                W12Q            3.17

Would you mind listing protein stability index for each of the following variants?
1. G9D
2. A16M
3. D15T
4. W12R
5. G13D

1: 3.6; 2: 2.52; 3: 2.28; 4: 2.86; 5: 2.5

Would you mind listing protein stability index for each of the following variants?
1. S3N
2. D22H
3. G24R

[4.08, 2.48, 2.83]

Form field protein stability index, entry T23A : 2.35
